# Test system: CREB
# protocol.details: Western blot of active (phosphorylated) CREB
# Assay type: cell-based, human
# stated.conditions: 3 days after transfection, vs siCon treated or untreated
assay.metric: level of pCREB protein

• siP2RY11: siRNA UGCGGGUGCUCAACGUGGA targeting purinergic receptor P2Y, G-protein coupled, 11 (listed as RNA, chemistry not given here) = increased
• siADK: siRNA GCCACACAAAGCAGCAACA targeting adenosine kinase (listed as RNA, chemistry not given here) = increased
• siSLC12a2: siRNA CCUCUUCGUGGCUACAUCU targeting solute carrier family 12, member 2 (listed as RNA, chemistry not given here) = increased
• siGNAS: siRNA UCGAAGAUUGAGGACUACU targeting GNAS complex locus (listed as RNA, chemistry not given here) = increased
